- Test Target: TF/FVIIa (Homo sapiens)
- Sequence (P08709 213-466 limits assumed): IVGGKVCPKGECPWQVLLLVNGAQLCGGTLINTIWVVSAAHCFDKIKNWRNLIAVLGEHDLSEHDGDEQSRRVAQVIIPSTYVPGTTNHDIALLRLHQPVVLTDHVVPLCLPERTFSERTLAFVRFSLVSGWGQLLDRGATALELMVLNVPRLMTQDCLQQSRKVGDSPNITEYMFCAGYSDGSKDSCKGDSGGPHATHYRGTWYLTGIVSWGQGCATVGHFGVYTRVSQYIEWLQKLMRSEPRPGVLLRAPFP
- Sequence (P08709 61-212 limits assumed): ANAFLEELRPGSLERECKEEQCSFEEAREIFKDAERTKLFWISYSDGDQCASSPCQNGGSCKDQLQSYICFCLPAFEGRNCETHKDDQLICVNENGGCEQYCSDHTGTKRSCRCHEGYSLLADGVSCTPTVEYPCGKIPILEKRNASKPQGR
- Sequence (P13726 33-295 partner): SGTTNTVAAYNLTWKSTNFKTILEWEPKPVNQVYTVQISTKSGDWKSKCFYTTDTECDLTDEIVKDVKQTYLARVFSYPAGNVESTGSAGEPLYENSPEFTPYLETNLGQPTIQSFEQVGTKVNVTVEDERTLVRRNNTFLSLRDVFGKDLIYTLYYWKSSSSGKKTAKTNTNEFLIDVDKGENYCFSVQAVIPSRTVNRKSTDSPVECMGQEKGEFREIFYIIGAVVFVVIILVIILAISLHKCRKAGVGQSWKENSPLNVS
- Protocol Text: TF/factor VIIa inhibition (TF/FVIIa-IC50)
Property Measured: IC50 (nM)
Just the number in nM, nothing appended.

Query :: Report IC50 for N#CN=C1NCCN1c1ccc(NC(=O)c2cc(C(F)(F)F)nn2-c2cccc(C(N)=O)c2)cc1 [CA] please.
Result :: 69

Query :: Report IC50 for N=C1CCCN1c1ccc(NC(=O)c2cc(C(F)(F)F)nn2-c2cccc(CN)c2)cc1 [AA] please.
Result :: 23

Query :: Report IC50 for CCc1nn(-c2ccc(NC(=O)c3cc(C(F)(F)F)nn3-c3cccc(C(N)=O)c3)cc2)c(=N)s1 [CB] please.
Result :: 150

Query compound follows.
Query :: Report IC50 for NC(=O)c1cccc(-n2nc(C(F)(F)F)cc2C(=O)Nc2ccc(N3CCCC3=S)c(Cl)c2)c1 [BB] please.
Result :: 180
